I'd be grateful if you could share measured cell viability for these entries.
Tested on: SEM cells
assayComment: cell viability relative to DMSO control; higher = less cytotoxic
conditionSummary: RPMI 5 mM glucose + 10% FBS; 48 h; 0.19 µM
Response body: numeric value in %, unit text excluded.

Req: Report cell viability for NCCOc1cc(C(=O)Nc2cc(OCCN)c3ccccc3n2)nc(C(=O)Nc2cc(OCCN)c3ccccc3n2)c1 please.
Resp: 23.6

Req: Consider next the compound CCn1c(C(=O)N(C2CC2)C2CC2)cc2c3c(ncn3C)c(Nc3cc(C)n(C)n3)nc21 in the same way.
Resp: 123

Req: Consider next the compound COc1cc2c(cc1OC)CN(CCc1ccc(NC(=O)c3cccc4c(=O)c5cccc(OC)c5[nH]c34)cc1)CC2 in the same way.
Resp: 83.5

Req: Consider next the compound OC(=O)CNC(=O)\C1=C(/O)C2=CC=CC=C2N(CC3=CC=CC=C3)C1=O in the same way.
Resp: 104

Req: Consider next the compound CCCCN1CCC(CNC(=O)c2c3n(c4ccccc24)CCCO3)CC1 in the same way.
Resp: 75.3

Req: Consider next the compound CC(C)(C)[C@]1(O)C[C@@H]2OC(=O)C[C@@]23C(=O)O[C@@H]2OC(=O)[C@H](O)C213 (stereo partly drawn) in the same way.
Resp: 108

Req: Consider next the compound CCCCCN(C)CCC(O)(P(=O)([O-])O)P(=O)(O)O in the same way.
Resp: 100

Req: Consider next the compound CNC(=O)c1nn(C)c2c1C(C)(C)Cc1cnc(Nc3ccc(N4CCN(C)CC4)cc3)nc1-2 in the same way.
Resp: 67.4

Provenance of the data: the supplement of paper PMC11451515
